Origin of values: the supplement of paper PMC6755084

B1: minF1; the commonest letter at each place (parent)
chain: GAGACCGCAACTGAAAAGTTGTTATCAGAAATGGATGGGTTGAATTTCTGCACGTAGAAGCAAAAGGC

- Variants of: B1
- method_description: fraction ligated after 30 min (ligated reads / total reads); higher = more ligase activity
- experimental_conditions: with F1*subA RNA substrate (template-directed ligation), 42 °C
Classify by fraction ligated. Ranges: category 1 = under 0.007, category 2 = from 0.007 up to 0.07, category 3 = 0.07 and over

Consider the worked cases shown below.
1) G28C G34A : category 3
2) A24T G34A : category 2
3) G28T G34C : category 1

Okay, next one:
Ask: Hi, small favor: classify C26G A43C by its fraction ligated when you get a moment.
Reply: category 1
